- System: plasma esterases
- assay summary: Inhibition of CDD hydrolysis in human plasma by esterase inhibitors
- Format: biochemical
- test parameters: concentration not given
quantity measured: inhibition of CDD hydrolysis (in words)

C=CC[N+](C)(C)c1ccc(CCC(=O)CCc2ccc([N+](C)(C)CC=C)cc2)cc1.[Br-].[Br-] ... no inhibition
CC(C)NP(=O)(NC(C)C)OP(=O)(NC(C)C)NC(C)C [Iso-OMPA, tetraisopropyl pyrophosphoramide] ... no inhibition
O=S(=O)(F)Cc1ccccc1 [PMSF, Phenylmethanesulfonyl fluoride] ... no inhibition

---

- System: plasma esterases
- assay summary: Inhibition of CDD hydrolysis in rat plasma by esterase inhibitors
- Type: biochemical
- test parameters: inhibitor 0.1 mM, CDD 1.5 μM, 37 °C, 5 s
quantity measured: % inhibition of CDD hydrolysis (%)
Enter your answer as a number in %; do not include the unit.

Cl.NCCc1ccc(S(=O)(=O)F)cc1 ... 19.4
O=[N+]([O-])c1ccc(OP(=O)(O)Oc2ccc([N+](=O)[O-])cc2)cc1 [BNPP, Bis(4-nitrophenyl) phosphate] ... 83.0

# ---- query molecule ----
Report % inhibition of CDD hydrolysis for CC(C)NP(=O)(NC(C)C)OP(=O)(NC(C)C)NC(C)C [Iso-OMPA, tetraisopropyl pyrophosphoramide] please.
99.5

---

- Tested on: plasma esterases
- assay summary: Inhibition of CDD hydrolysis in rat plasma by esterase inhibitors
- Type: biochemical
- test parameters: inhibitor 0.1 mM, CDD 1.5 μM, 37 °C, 5 s
quantity measured: % inhibition of CDD hydrolysis

See these solved cases before continuing.
Cc1ccc(S(=O)(=O)N[C@@H](CCCCN)C(=O)CCl)cc1.Cl [TLCK] ... <10%
O=C(O)c1cc(SSc2ccc([N+](=O)[O-])c(C(=O)O)c2)ccc1[N+](=O)[O-] [DTNB, 5,5′-dithiobis-2-nitrobenzoic acid] ... <10%

Now for the molecule whose % inhibition of CDD hydrolysis we want.
Field request: % inhibition of CDD hydrolysis | item: O=S(=O)(F)Cc1ccccc1 [PMSF, Phenylmethanesulfonyl fluoride]
<10%
